molecular target: Beta-secretase 1 (Homo sapiens)
Sequence (P56817 whole entry): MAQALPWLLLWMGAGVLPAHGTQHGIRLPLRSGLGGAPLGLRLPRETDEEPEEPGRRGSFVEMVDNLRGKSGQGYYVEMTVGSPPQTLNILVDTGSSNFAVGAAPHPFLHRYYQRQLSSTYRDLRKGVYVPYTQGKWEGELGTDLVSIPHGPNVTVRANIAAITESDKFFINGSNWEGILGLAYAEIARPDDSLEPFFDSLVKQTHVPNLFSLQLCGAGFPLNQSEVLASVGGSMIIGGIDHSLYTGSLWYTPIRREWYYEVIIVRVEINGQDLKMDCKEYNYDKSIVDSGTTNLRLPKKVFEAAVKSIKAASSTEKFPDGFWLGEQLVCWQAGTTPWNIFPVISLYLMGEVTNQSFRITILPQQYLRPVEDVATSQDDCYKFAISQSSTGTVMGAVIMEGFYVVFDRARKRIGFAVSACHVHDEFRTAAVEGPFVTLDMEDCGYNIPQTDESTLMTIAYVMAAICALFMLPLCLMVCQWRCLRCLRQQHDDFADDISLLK
endpoint: IC50

>>> value_measured("Nc1nc2c(-c3ccncc3F)ccnc2[nH]1")
"> 200 µM"
